# Tested on: SNK-6 (IL-2 2.5 ng/mL)
# experiment-notes: relative IC50 (inflection point of fitted viability curve, relative to fitted max inhibition); higher = less sensitive
# stated-conditions: 72 h
So I've got a bunch of compounds here, and I need their relative IC50 values.
Answers are plain numbers, in nM.

Worked examples follow.
1. O=C(Cc1ccc(-c2ccc(OCCN3CCOCC3)cc2)cn1)NCc1ccccc1 [KX2-391] | 5.46
2. Nc1ccn([C@@H]2O[C@H](CO)[C@@H](O)[C@@H]2O)c(=O)n1 [Cytarabine] | 193

Hey, can you go through the list below and give me relative IC50 for every item?
1. CCn1c(=O)c(-c2cc[nH]n2)cc2c(C)nc(N)nc21 [Voxtalisib]
2. CC(C)C[C@H](NC(=O)[C@H](Cc1ccccc1)NC(=O)c1cnccn1)B(O)O [Bortezomib]

1: 3190; 2: 2.15
